Each entry below carries its recorded Δkoff.
Target: VEGF (R&D systems, Minneapolis, Minn.) (UniProt P15692-4 27-191, limits assumed)
Sequence (P15692 other isoform, or with tags, fused parts or gaps limits assumed): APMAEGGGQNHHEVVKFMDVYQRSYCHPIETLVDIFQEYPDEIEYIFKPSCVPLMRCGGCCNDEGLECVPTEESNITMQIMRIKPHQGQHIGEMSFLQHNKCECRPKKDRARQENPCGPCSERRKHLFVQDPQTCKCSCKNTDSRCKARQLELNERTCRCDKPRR
Test: BIAcore SPR, WT/mutant
Protocol: RL was kept low to minimize avidity due to the dimeric nature of VEGF. No capture of the antibody was made on the reference surface to serve as a negative control. […] All the binding kinetics data were analyzed at least three separate determinations.

BINDER | Δkoff [fold]
86 (antibody, human IgG1, V domains shown) VH: EVQLVESGGGLVQPGGSLRLSCAASGYTFTFYGMNWVRQAPGKGLEWVGWINTYTGEPTYAADFKRRFTFSLDTSKSTAYLQMNSLRAEDTAVYYCAKYPDYEGSSHWYFDVWGQGTLVTVSS VL: DIQMTQSPSSLSASVGDRVTITCSASQDISNYLNWYQQKPGKAPKVLIYFTSSLHSGVPSRFSGSGSGTDFTLTISSLQPEDFATYYCQQYSTVPWTFGQGTKVEIKR | 1.5
92 (antibody, human IgG1, V domains shown) VH: EVQLVESGGGLVQPGGSLRLSCAASGYTFTNYGMNWVRQAPGKGLEWVGWINTYTGEPTYAADFKRRFTFSLDTSKSTAYLQMNSLRAEDTAVYYCAKYPPYYGSSHWYFDVWGQGTLVTVSS VL: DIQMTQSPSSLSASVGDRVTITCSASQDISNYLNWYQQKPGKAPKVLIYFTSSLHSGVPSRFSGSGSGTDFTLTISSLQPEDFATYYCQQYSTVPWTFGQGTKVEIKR | 1.4
96 (antibody, human IgG1, V domains shown) VH: EVQLVESGGGLVQPGGSLRLSCAASGYTFTFYGMNWVRQAPGKGLEWVGWINTYTGEPTYAADFKRRFTFSLDTSKSTAYLQMNSLRAEDTAVYYCAKYPPYYGGSHWYFDVWGQGTLVTVSS VL: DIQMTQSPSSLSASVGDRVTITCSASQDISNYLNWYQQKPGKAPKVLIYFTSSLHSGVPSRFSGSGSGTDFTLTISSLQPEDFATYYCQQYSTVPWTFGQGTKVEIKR | 0.9
93 (antibody, human IgG1, V domains shown) VH: EVQLVESGGGLVQPGGSLRLSCAASGYTFTNYGMNWVRQAPGKGLEWVGWINTYTGEPTYAADFKRRFTFSLDTSKSTAYLQMNSLRAEDTAVYYCAKYPEYYGSSHWYFDVWGQGTLVTVSS VL: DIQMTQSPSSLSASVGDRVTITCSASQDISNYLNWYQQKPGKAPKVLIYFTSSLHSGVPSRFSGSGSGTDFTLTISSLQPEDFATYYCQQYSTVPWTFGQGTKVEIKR | 1.6
